assayedSystem: Aldehyde dehydrogenase 1A1 (Homo sapiens)
protocol: qHTS for Inhibitors of the Aldehyde Dehydrogenase Family (ALDH1A1) Confirmatory screens (AID 2061316); further: nearly all actives have a fitted effect of over 65% in size
conditions: ALDH inhibition qHTS; series mostly up to 47.3 µM
Results filed as inconclusive are left out. Active and inactive are the calls of the source. The call rests on the fitted dose curve; in most records, active means well fitted inhibition curve with a large enough effect; inconclusive means small, poorly fitted or top-dose-only effect; inactive means no such curve, though single readings can be large or run the other way.
The reply should name one outcome from active, inactive

compound | class
N#Cc1ccc(-c2ccc(CNc3ccc(N4CCC(C#N)CC4)cc3)o2)cc1 | active
OCC1O[C@H]([S-])[C@H](O)[C@@H](O)[C@@H]1O.[Au+] (stereo not given in full) | inactive
C[C@H]1[C@H](/C=C/c2ccc(-c3ccccc3C#N)cn2)[C@@H]2[C@@H](C)OC(=O)[C@@H]2C[C@@H]1C | active
NC1CCN(c2nc(-c3ccc(Br)cc3)cs2)CC1 | inactive
COC(CCc1ccc(O)cc1)CC(=O)CCc1ccc(O)cc1 (stereo not given) | inactive
Cc1c(-c2ccccc2)no[n+]1[O-] | inactive
Cc1cc2c(s1)c1cnn(Cc3c(Cl)ccc(C)c3F)c(=O)c1n2C | inactive
Cc1nnc(-c2sc(NC(=O)[C@H](C(C)C)n3c(=O)[nH]c4ccccc4c3=O)nc2C)o1 | inactive
COc1ccc(NC(=O)c2ccc(-c3ccc(C(=N)N)cc3C)cc2)cc1N1CCN(C)CC1 | active

[Q] What call does the record list for COc1ccc(C2=Nn3c(nnc3-c3cccc(OC)c3)SC2)cc1 ?
[A] inactive

* * *

protocol: BET inhibitor-based combinations targeting novel dependencies in MECOM-rearranged (r) AML: HNT-34 cell line (AID 2202234); further: nearly all actives have a fitted effect of over 35% in size
conditions: HNT-34 AML viability, CellTiter-Glo luminescence, 48 h; series mostly up to 46 µM
Results filed as inconclusive are left out. Active and inactive are the calls of the source. Calls follow the shape of the dose curve; as a rule, active = well fitted inhibition curve with a large enough effect; inconclusive = small, poorly fitted or top-dose-only effect; inactive = no such curve, though single readings can be large or run the other way.
testReadout: outcome

Solved cases below.
compound | outcome
NS(=O)(=O)c1cc2c(cc1Cl)NC=NS2(=O)=O | inactive
CN[C@@H](C)C(=O)N[C@H]1CCCC[C@H]2CC[C@@H](C(=O)N[C@@H](c3ccccc3)c3cn(CCCCc4ccc(CCCCn5cc([C@@H](NC(=O)[C@@H]6CC[C@@H]7CCCC[C@H](NC(=O)[C@H](C)NC)C(=O)N76)c6ccccc6)nn5)cc4)nn3)N2C1=O | inactive
CC(=O)SC[C@@H](C)C(=O)N1CCC[C@H]1C(=O)N[C@@H](Cc1ccccc1)C(=O)O | inactive
Clc1ccc2nsnc2c1NC1=NCCN1 | inactive
CCOC(=O)O[C@]1(C(=O)OCCl)CC[C@H]2[C@@H]3CCC4=CC(=O)C=C[C@]4(C)[C@H]3[C@@H](O)C[C@@]21C | inactive

Look at each compound and report its outcome.
1. O=C(O)CSCC(=O)NC1CCSC1=O (centres undefined)
2. O=C(O)CCNC(=O)c1ccc(N=Nc2ccc(O)c(C(=O)O)c2)cc1
3. O=c1oc2c(O)c(O)cc3c(=O)oc4c(O)c(O)cc1c4c23
4. NC(=O)c1cnccn1

[A]
inactive
inactive
inactive
inactive

* * *

protocol: BET inhibitor-based combinations targeting novel dependencies in MECOM-rearranged (r) AML: AML-194 cell line (AID 2202237; further: nearly all actives have a fitted effect of over 40% in size)
conditions: AML-194 (MECOM-r AML) viability, CellTiter-Glo, 48 h; series mostly up to 46 µM
Results filed as inconclusive are left out. The source made the active and inactive calls. Calls follow the shape of the dose curve; as a rule, active = well fitted inhibition curve with a large enough effect; inconclusive = small, poorly fitted or top-dose-only effect; inactive = flat fitted curve, though single readings scatter. Non-standard residues stand in square brackets, D forms with d. Residues, ends and D or L forms follow the SMILES beside them. *: point of attachment. Sta = CC(C)C[C@H](N)[C@@H](O)CC(=O)O; Isovaleryl = CC(C)CC(=O)*
The reply should name one outcome from active, inactive

Reference set, count: 5
molecule | class
CC(C)CC(=O)N[C@H](C(=O)N[C@H](C(=O)N[C@@H](CC(C)C)[C@@H](O)CC(=O)N[C@@H](C)C(=O)N[C@@H](CC(C)C)[C@@H](O)CC(=O)O)C(C)C)C(C)C (Isovaleryl-VV[Sta]A[Sta]-OH) | inactive
NC(=O)c1noc([C@H](CCCC2CCCCC2)CC(=O)NO)n1 | active
COc1ccccc1OCC(O)CN1CCN(CC(=O)Nc2c(C)cccc2C)CC1 (centres undefined) | inactive
Nc1ccn(C2CO[C@H](CO)O2)c(=O)n1 (some centres undefined) | inactive
Cc1ncc(-c2ccnc(Nc3ccc(S(C)(=O)=O)cc3)n2)n1C(C)C | active

[Q] What call does the record list for O=[N+]([O-])c1cncn1CCN1CCOCC1 ?
[A] inactive

[Q] What call does the record list for CC(=O)Nc1nc(C)c(-c2ccc(Cl)c(S(=O)(=O)NCCO)c2)s1 ?
[A] active

[Q] What call does the record list for O=C(O)[C@H](O)[C@@H](O)[C@H](O[C@@H]1O[C@H](CO)[C@H](O)[C@H](O)[C@H]1O)[C@H](O)CO ?
[A] inactive

[Q] What call does the record list for NS(=O)(=O)OC[C@@H]1C[C@@H](n2ccc3c(N[C@H]4CCc5ccccc54)ncnc32)C[C@@H]1O ?
[A] active

* * *

assayedSystem: Retinaldehyde dehydrogenase 3 (Homo sapiens) (UniProt P47895)
protocol: qHTS for Inhibitors of the Aldehyde Dehydrogenase Family (ALDH1A3) Confirmatory screens (AID 2061311); further: nearly all actives have a fitted effect of over 60% in size
conditions: ALDH inhibition qHTS; series mostly up to 46 µM
Results filed as inconclusive are left out. Activity calls are given as the source filed them. Calls follow the shape of the dose curve; as a rule, active = well fitted inhibition curve with a large enough effect; inconclusive = small, poorly fitted or top-dose-only effect; inactive = no such curve, though single readings can be large or run the other way.
The reply should name one outcome from active, inactive

Reference set, count: 2
compound | class
C/C(=N\N=C(N)N)c1cc(NC(=O)CCCCCCCCC(=O)Nc2cc(/C(C)=N/N=C(N)N)cc(/C(C)=N/N=C(N)N)c2)cc(/C(C)=N/N=C(N)N)c1 | inactive
Oc1ccc(Nc2nc(-c3ccc(Cl)cc3)cs2)cc1 | inactive

[Q] What call does the record list for CC(C)N(CCC(=O)c1ccc2ccccc2c1)Cc1ccccc1 ?
[A] active

[Q] What call does the record list for Cc1cc(NC(=O)c2ccc([S+](=O)([O-])NCc3ccc(Cl)c(Cl)c3)cc2)no1 ?
[A] inactive

* * *

protocol: BET inhibitor-based combinations targeting novel dependencies in MECOM-rearranged (r) AML: UCSD-AML1 cell line (AID 2202235); further: nearly all actives have a fitted effect of over 40% in size
conditions: UCSD-AML1 AML cells viability, CellTiter-Glo, 48 h; series mostly up to 46 µM
Results filed as inconclusive are left out. Activity calls are given as the source filed them. Calls come from the whole dose curve; as a rule, active = well fitted inhibition curve with a large enough effect; inconclusive = small, poorly fitted or top-dose-only effect; inactive = no such curve, though single readings can be large or run the other way.
The reply should name one outcome from active, inactive

compound | class
c1coc(CNc2ncnc3nc[nH]c23)c1 | inactive
CCCCS(=N)(=O)CCC(N)C(=O)O (stereo not drawn) | inactive
O=c1ccn([C@@H]2O[C@H](CO)[C@@H](O)[C@H]2O)c(=O)[nH]1 | inactive
COc1cc(C(=O)NS(=O)(=O)c2ccccc2C)ccc1Cc1cn(C)c2ccc(NC(=O)OC3CCCC3)cc12 | inactive
Cn1c(=O)n(-c2ccc(C(C)(C)C#N)cc2)c2c3cc(-c4cnc5ccccc5c4)ccc3ncc21 | active
O=C(COCC(=O)N1CCN(C(c2ccccc2)c2ccccc2)CC1)Nc1ccc(Cl)cc1C(=O)O | inactive
CCCCc1oc2ccc(NS(C)(=O)=O)cc2c1C(=O)c1ccc(OCCCN(CCCC)CCCC)cc1 | active
CNc1nc(C)nc(N[C@H]2CCC[C@@H](C(=O)NCc3ccc(C#N)cc3C(F)(F)F)C2)n1 | inactive
COc1cc2c(Oc3ccc(NC(=O)C4(C(=O)Nc5ccc(F)cc5)CC4)cc3F)ccnc2cc1OCCCN1CCOCC1 | active
CC(C)Oc1ccc2c(=O)c(-c3ccccc3)coc2c1 | inactive

[Q] What call does the record list for O=c1cc(CN2CCOCC2)occ1OCCCCCSc1ccnc2cc(C(F)(F)F)ccc12 ?
[A] inactive

[Q] What call does the record list for Cc1cc(C)cc(NC(=O)Cc2ccc(OC(C)(C)C(=O)O)cc2)c1 ?
[A] inactive

[Q] What call does the record list for Cc1cnc(Nc2ccc(N3CCN(C)CC3)cc2)nc1Nc1cccc(S(=O)(=O)NC(C)(C)C)c1 ?
[A] active

[Q] What call does the record list for O=C1CSC(=O)N1C(CCc1ccncc1)COc1ccc(-c2cccc([N+](=O)[O-])c2)cc1 (stereo not drawn) ?
[A] inactive

[Q] What call does the record list for C1=C/COCc2cc(ccc2OCCN2CCCC2)Nc2nccc(n2)-c2cccc(c2)COC/1 ?
[A] active

[Q] What call does the record list for O=C(O)CC1CCC(c2ccc(-c3ccc(Nc4ccc(C(F)(F)F)nc4)cn3)cc2)CC1 (stereo not drawn) ?
[A] inactive

[Q] What call does the record list for CCO[C@@H]1OC(=O)C[C@@H]1NC(=O)[C@@H]1CCCN1C(=O)[C@@H](NC(=O)c1ccc(N)c(Cl)c1)C(C)(C)C ?
[A] inactive

[Q] What call does the record list for CN(C(=O)c1ccc(F)cc1C(F)(F)F)C1CCN(c2nnc(-c3ccnn3C)c3ccccc23)CC1 ?
[A] inactive

[Q] What call does the record list for COc1cc2c(Nc3ccc(Br)cc3F)ncnc2cc1OCC1CCN(C)CC1 ?
[A] active

[Q] What call does the record list for O=C(O)CCC1CCC(c2cc(F)ccc2F)(S(=O)(=O)c2ccc(Cl)cc2)CC1 (stereo not drawn) ?
[A] inactive

[Q] What call does the record list for Cc1csc(-c2nnc(Nc3ccc(Oc4ncccc4-c4ccnc(N)n4)cc3)c3ccccc23)c1 ?
[A] active
